Reported values of combination Emax for individual entries
# System: ES1 (Ewing's Sarcoma)
# TEST SUMMARY: combination Emax (second highest fraction inhibited in the dose matrix, 72 h); higher = more inhibition; extreme values may be limits of the assay
REPORTED ENDPOINT: combination Emax

>>> value_measured("CCN(CCO)CCCOc1ccc2c(Nc3cc(CC(=O)Nc4cccc(F)c4)[nH]n3)ncnc2c1 [AZD2811] + C[C@@H]1COCCN1C2=NC(=NC(=C2)C3(CC3)[S@](=N)(=O)C)C4=C5C=CNC5=NC=C4 [AZD6738] (first compound max 1 µM, 7x7, partner max 10 µM)")
0.948
>>> value_measured("C[C@@H](Oc1cc(-c2cnn(C3CCNCC3)c2)cnc1N)c1c(Cl)ccc(F)c1Cl [Crizotinib] + Cn1cnc2c(F)c(Nc3ccc(Br)cc3Cl)c(C(=O)NOCCO)cc21 [Selumetinib] (first compound max 10 µM, 7x7, partner max 10 µM)")
0.843
>>> value_measured("NC1(C(=O)N[C@@H](CCO)c2ccc(Cl)cc2)CCN(c2ncnc3[nH]ccc23)CC1 [Capivasertib] + CC(C)n1c(=O)n(C)c2cnc3cc(F)c(-c4ccc(OCCCN5CCCCC5)nc4)cc3c21 [AZD1390] (first compound max 10 µM, 7x7, partner max 0.3 µM)")
0.452
>>> value_measured("O=C(c1cc(Cc2n[nH]c(=O)c3ccccc23)ccc1F)N1CCN(C(=O)C2CC2)CC1 [Olaparib] + Cc1c2c(nn1C)CSCc1cc(n(C)n1)CSc1cc(c3ccccc3c1)OCCCc1c(C(=O)O)n(C)c3c-2c(Cl)ccc13 [AZD5991] (first compound max 10 µM, 7x7, partner max 1 µM)")
0.98
>>> value_measured("C[C@@H](Nc1cc(F)cc(F)c1)c1cc(C(=O)N(C)C)cc2c(=O)cc(N3CCOCC3)oc12 [AZD8186] + C1CN(CCC1(C(=O)N[C@@H](CCO)C2=CC=C(C=C2)Cl)N)C3=NC=NC4=C3C=CN4 [AZD5363] (first compound max 10 µM, 7x7, partner max 10 µM)")
0.55
>>> value_measured("O=C(c1cc(Cc2n[nH]c(=O)c3ccccc23)ccc1F)N1CCN(C(=O)C2CC2)CC1 [Olaparib] + CN(CC[C@H](CSC1=CC=CC=C1)NC2=C(C=C(C=C2)S(=O)(=O)NC(=O)C3=CC=C(C=C3)N4CCC(CC4)[C@H](C5=CC=CC=C5C6=CC=C(C=C6)Cl)O)S(=O)(=O)C(F)(F)F)CCO [AZD4320] (first compound max 10 µM, 7x7, partner max 1 µM)")
0.918
>>> value_measured("COc1cc2c(cc1OCCCCCOc1cc3c(cc1OC)C(=O)N1C=C(C)C[C@H]1C=N3)N=C[C@@H]1CC(C)=CN1C2=O [SG3199] + O=C(c1cc(Cc2n[nH]c(=O)c3ccccc23)ccc1F)N1CCN(C(=O)C2CC2)CC1 [Olaparib] (first compound max 0.001 µM, 7x7, partner max 10 µM)")
0.689
>>> value_measured("COc1nnc2ccc(N3CCC(c4ccc(OCCN5CCN(C)C(=O)[C@H]5C)cc4)CC3)nn12 [AZD5153] + Cc1c2c(nn1C)CSCc1cc(n(C)n1)CSc1cc(c3ccccc3c1)OCCCc1c(C(=O)O)n(C)c3c-2c(Cl)ccc13 [AZD5991] (first compound max 1 µM, 7x7, partner max 1 µM)")
0.955
>>> value_measured("Cc1c2c(nn1C)CSCc1cc(n(C)n1)CSc1cc(c3ccccc3c1)OCCCc1c(C(=O)O)n(C)c3c-2c(Cl)ccc13 [AZD5991] + CN(C)CCCOc1ccc(-c2ccc3ncc4c(c3c2)n(C2CCOCC2)c(=O)n4C)cn1 [AZD0156] (first compound max 1 µM, 7x7, partner max 1 µM)")
0.753

// data source = the supplement of paper PMC11061612
